// TGI lookup, one value per entry
Test system: M19-MEL melanoma
Assay: NCI tumour cell line growth inhibition, 48 h

Take a look at these entries with their results.
- molecule: "COc1ccccc1NC(=O)C1=C(C)NC(C)=C(C(=O)Nc2ccccc2OC)C1c1ccc(N(C)C)cc1"
  TGI: "> 100 µM"
- molecule: "CCC[CH2][Sn]1([CH2]CCC)[O]C(=O)c2ccc(N)cc2[O]1"
  TGI: "1.66 µM"
- molecule: "CC1(O)CCC2(C)C(=O)C1(C)CCC21OCCO1 (centres undefined)"
  TGI: "> 100 µM"

Could you now consider this next molecule?
GET /values?readout=TGI&item= "O=c1cc(-c2ccccn2)[nH]c2cc(F)ccc12"
> 100 µM
